Tested on: UACC-62
Measurement notes: NCI tumour cell line growth inhibition, 48 h
Calls of active or inactive are those of the source. Rule as the data show it: active = GI50 up to about 1.1 µM and inactive = higher.
Assign GI50 to each entry below.

Determine reported GI50 for CN1N=C2NCCNC3=NN(C)/C(=N/CC/N=C/1S2)S3 ; test system: UACC-62.
> 100 µM (inactive)

Determine reported GI50 for O=C1C(=O)N(c2ccc(Cl)cc2Cl)C(=O)C(=O)C1c1nc2ccccc2o1 ; test system: UACC-62.
> 100 µM (inactive)

Determine reported GI50 for CCC(=O)NCCc1c2c3c(ccnc3c3ncsc13)-c1ccccc1N2 [KUANONIAMINE C] ; test system: UACC-62.
1.63 µM (inactive)

Determine reported GI50 for C[C@@H]1[C@H](O)CC2=C(CC[C@@H](O)C2(C)C)[C@@]1(CO)CCc1ccoc1 ; test system: UACC-62.
> 50 µM (inactive)

Determine reported GI50 for COc1cc(O)c2c(=O)c3cccc(C)c3[nH]c2c1 ; test system: UACC-62.
> 10 µM (inactive)

Determine reported GI50 for CC1CCN(CCC(=O)CC(c2ccccc2)c2c(O)c3ccccc3oc2=O)CC1 (stereo not drawn) ; test system: UACC-62.
> 100 µM (inactive)

Determine reported GI50 for N#CC(/N=N/c1ccc(Cl)cc1)c1nc2ccccc2o1 (stereo not drawn) ; test system: UACC-62.
20.6 µM (inactive)

Determine reported GI50 for CC1=NN(c2ccccc2)C(=O)C1/N=N/c1ccc(Br)c(C)c1 (stereo not drawn) ; test system: UACC-62.
> 100 µM (inactive)

Determine reported GI50 for Cc1ccsc1/C=N/Nc1cc(C)c2ccccc2n1 ; test system: UACC-62.
12.5 µM (inactive)

Determine reported GI50 for CCCCCCCCCCCCCC/C(C(=O)OC)=C(/O)C(=O)OCC ; test system: UACC-62.
16.9 µM (inactive)

Determine reported GI50 for O=C1CCCCCCCCCCC1CN1CCOCC1 (stereo not drawn) ; test system: UACC-62.
> 100 µM (inactive)

Determine reported GI50 for C=CCCC(CCC=C)(C(=O)O)C(=O)O ; test system: UACC-62.
> 100 µM (inactive)

Determine reported GI50 for CC(=O)OCc1cc(=O)n(C)c2c3c4c(cc12)c(C)cc(=O)n4CO3 ; test system: UACC-62.
1.34 µM (inactive)
